Please go through the items and note down their Receptor downregulation, (EC50) (pM).
- assaySystem: human CD33 on primary human dendritic cells (human, UniProt P20138 18-364)
- Sequence (P20138 18-364): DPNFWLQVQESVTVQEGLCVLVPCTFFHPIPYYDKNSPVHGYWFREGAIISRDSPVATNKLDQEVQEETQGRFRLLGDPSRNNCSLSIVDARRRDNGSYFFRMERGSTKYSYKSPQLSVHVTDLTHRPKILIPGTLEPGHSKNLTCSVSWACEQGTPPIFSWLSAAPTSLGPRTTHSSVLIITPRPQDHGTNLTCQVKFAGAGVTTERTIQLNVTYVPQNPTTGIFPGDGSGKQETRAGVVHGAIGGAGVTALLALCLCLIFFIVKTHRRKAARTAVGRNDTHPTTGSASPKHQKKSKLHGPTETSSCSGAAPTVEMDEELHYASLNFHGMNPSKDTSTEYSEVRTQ
- assayName: cell-based or functional assay
Put your answer as a value accompanied by its unit after it.

Q: Reported Receptor downregulation, (EC50) (pM), binder anti-CD33 antibody 6C7H13 (antibody, V domains shown, VH/VL only) VH: EVQLVESGGGLVQPGGSLRLSCAGSGFTFSNYFMNWVRQAPGKGLEWVAEIRLKSNNYVTNYAASVKGRFTISRDDSKNSVYLQMNSLKTEDTGVYYCTRAGYYVPFAYWGQGTLVTVSS VL: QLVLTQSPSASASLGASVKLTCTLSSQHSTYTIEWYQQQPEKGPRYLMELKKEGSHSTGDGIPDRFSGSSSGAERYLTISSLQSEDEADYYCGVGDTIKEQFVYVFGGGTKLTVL : ____
A: 3640 pM

New cases:
Q: Reported Receptor downregulation, (EC50) (pM), binder anti-CD33 antibody 6C7H14 (antibody, V domains shown, VH/VL only) VH: EVQLVESGGGLVQPGGSLRLSCAGSGFTFSNYAMNWVRQAPGKGLEWVAEIRLKSNNYVTNYAASVKGRFTISRDDSKNSVYLQMNSLKTEDTGVYYCTRAGYYVPFAYWGQGTLVTVSS VL: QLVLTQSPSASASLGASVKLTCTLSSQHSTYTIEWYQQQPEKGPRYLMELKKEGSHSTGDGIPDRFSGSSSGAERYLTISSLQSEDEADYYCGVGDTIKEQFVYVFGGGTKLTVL : ____
A: 164 pM
